Test: qHTS assay for MDR1-selective chemotherapeutics: Primary screen using the parental adenocarcinoma cell KB-3-1; further: nearly all actives have a fitted effect of over 60% in size
Settings: KB-3-1 viability, CellTiter-Glo ATP luminescence, 72 h; series mostly up to 46.1 µM
The campaign covered roughly 400,000 compounds. About 5,500 (1.4%) were called active. About 9% were inconclusive and are not listed. The call rests on the fitted dose curve; in most records, active means well fitted cell-killing curve with a large enough effect; inconclusive means small, poorly fitted or top-dose-only effect, or effect the other way; inactive means flat fitted curve, though single readings scatter. This is one part of a sample in which actives are shown more often than they occur.
Hello, when you answer, please use one of the following outcomes: active, inactive

-- ask Tell me the assay call for CCC(=O)N1CCc2cc(S(=O)(=O)NC(Cc3ccccc3)C(=O)NCc3ccccc3)ccc21 (stereo not given) please.
-- reply inactive

-- ask Lab log entry: COCCn1nnnc1C(c1cc2ccc(OC)cc2[nH]c1=O)N1CCc2ccccc2C1 (stereo not given) — outcome as called in the assay?
-- reply inactive

-- ask What classification did `Cc1cccc(-n2c(=O)c3c(c4cc(C)ccc4n3C)n(CC(=O)Nc3ccccc3Cl)c2=O)c1` end up with in this test?
-- reply inactive

-- ask // return assay outcome for `CCCCCn1c(CCCNC(=O)c2ccccc2OC)nc2ccccc21`
-- reply inactive

-- ask Hi, sorry to bother you, what did the test record for Cc1ccccc1-c1cc(C(=O)NCC2CC2)n(CC2CC(c3cccnc3)=NO2)n1 (stereo not given) ?
-- reply inactive

-- ask Call for entry Cc1ccc(Cl)cc1NC(=O)C(C)n1nnc2sc(-c3ccccc3)cc2c1=O (stereo not given) :
-- reply inactive

-- ask Tell me the recorded outcome of this test for CC1=C(C(=O)OCC2CCCCC2)C(c2c(F)cccc2Cl)CC(=O)N1 (stereo not given) .
-- reply inactive

-- ask Which outcome was entered for the compound `CCOc1ccc(CCNC(=O)c2ccc3c(c2)sc2nc(-c4ccc(F)cc4)cn23)cc1OCC` in this test?
-- reply inactive

-- ask Dear all, I need the recorded test outcome for `O=c1c2cccnc2n(Cc2cccc(F)c2)c(=O)n1Cc1ccccc1Cl` , thank you.
-- reply inactive

-- ask Check the results log: what was the call for `CCOC(=O)c1cc2occc2n1CC(=O)N1CCN(C(=O)c2ccco2)CC1` ?
-- reply inactive

-- ask In this assay, the call recorded for `CCS(=O)(=O)N1CCC(n2c(C)nc3cccnc32)CC1` was what?
-- reply inactive

-- ask Please let me know the test result on file for `Cc1cc(C)nc(NS(=O)(=O)c2ccc(NC(=O)c3cc(=O)c4ccc(C)c(C)c4o3)cc2)n1` .
-- reply inactive

-- ask Each compound tested received a call. Report the one for Cc1ccc(CNC(=O)c2cc(-c3ccccc3C)n(CC3CC(c4cccc([N+](=O)[O-])c4)=NO3)n2)cc1 (stereo not given) .
-- reply inactive

-- ask Answer briefly: the call reported for Cc1ccccc1-c1cc(C(=O)NCc2cccs2)n(CC2CC(c3cccnc3)=NO2)n1 (stereo not given) in this assay.
-- reply active

-- ask Check the results log: what was the call for `COc1ccc(-c2nc(=N)sn2-c2ccccc2)cc1` ?
-- reply inactive

-- ask For CCOC(=O)c1cc2occc2n1CC(=O)NC1CCC(C)CC1 (stereo not given) , what call appears in the results of this test?
-- reply inactive

-- ask // param item: `Cc1cc(C)c(NC(=O)Cn2c(SCC(=O)NCc3ccccc3)nc3ccccc32)c(C)c1` ; yields the recorded call
-- reply inactive

-- ask Which outcome was assigned to COc1ccc(OC)c(C(c2nnnn2C(C)(C)C)N2CCc3ccccc3C2)c1 (stereo not given) in this test?
-- reply active

-- ask Dear colleague, could you share the recorded outcome for `CCOC(=O)c1cc2c(ccn2C)n1CC(=O)N1CCC(C)CC1` when you have a moment?
-- reply active

-- ask Query: recorded result category for CC(NC(=O)c1cc2c(=O)n3ccccc3nc2n(C(C)C)c1=N)c1ccccc1 (stereo not given) in this test
-- reply inactive

---

Assay: qHTS assay for MDR1-selective chemotherapeutics: Primary screen using the parental adenocarcinoma cell KB-3-1; further: nearly all actives have a fitted effect of over 60% in size
Conditions: KB-3-1 viability, CellTiter-Glo ATP luminescence, 72 h; series mostly up to 46.1 µM
Out of some 400,000 compounds screened, about 5,500 (1.4%) were called active. Inconclusive results (about 9%) are left out. Calls come from the whole dose curve; as a rule, active = well fitted cell-killing curve with a large enough effect; inconclusive = small, poorly fitted or top-dose-only effect, or effect the other way; inactive = flat fitted curve, though single readings scatter. Many of the other results were omitted from the sample, so actives are more common in it than they were.
Classes to choose from: active, inactive

-- ask For Cc1ccc(CNC(=O)CSC2=Nc3ccccc3C3=NC(C)C(=O)N23)cc1 (stereo not given) , which call appears in the assay record?
-- reply inactive

-- ask For `COc1ccccc1N1CCN(CCCNC(=O)c2cnn(-c3ccccc3Cl)c2C2CCN(C(=O)OC(C)(C)C)CC2)CC1` , what call appears in the results of this test?
-- reply inactive

-- ask What outcome does the record of this test show for `CCc1ccc(NC(=O)Cn2c(=O)n(CCC(=O)NCc3ccc4c(c3)OCO4)c(=O)c3ccccc32)cc1` ?
-- reply inactive

-- ask What is the recorded call for this molecule in the test? CC(C)C1N=C2c3ccccc3N=C(SCC(=O)c3ccc(O)c(O)c3)N2C1=O (stereo not given)
-- reply active

-- ask Answer briefly: the call reported for `CCN(CCCNC(=O)Cn1ncc2c([nH]c3ccccc32)c1=O)c1cccc(C)c1` in this assay.
-- reply inactive

---

Experiment: qHTS assay for MDR1-selective chemotherapeutics: Primary screen using the parental adenocarcinoma cell KB-3-1; further: nearly all actives have a fitted effect of over 60% in size
Settings: KB-3-1 viability, CellTiter-Glo ATP luminescence, 72 h; series mostly up to 46.1 µM
Out of some 400,000 compounds screened, about 5,500 (1.4%) were called active. Not shown: some 9% with an inconclusive outcome. Calls follow the shape of the dose curve; as a rule, active = well fitted cell-killing curve with a large enough effect; inconclusive = small, poorly fitted or top-dose-only effect, or effect the other way; inactive = flat fitted curve, though single readings scatter. Many of the other results were omitted from the sample, so actives are more common in it than they were.
Parameter call: string, one of T = active, F = inactive

-- ask Assay result, entry `COc1cccc(-c2cc(NC(C)=O)c3ncc(-c4cccc(C(C)=O)c4)n3c2)c1` — outcome?
-- reply F

-- ask Test call, this compound: `COc1cccc(-c2cnc3c(NC(C)=O)cc(-c4cccc(NC(C)=O)c4)cn23)c1`
-- reply F

-- ask What did the test return for `CC(C)Sc1oc(-c2cccs2)nc1S(=O)(=O)c1ccc(Cl)cc1` ?
-- reply F

-- ask Please state the recorded outcome for this compound: `COc1ccccc1-c1cc(NC(C)=O)c2ncc(-c3ccc(F)cc3)n2c1`
-- reply F

-- ask Which result was noted for this compound in the test: `COc1ccc(-c2cc(NC=O)c3ncc(-c4cc(OC)c(OC)c(OC)c4)n3c2)c(OC)c1`
-- reply T

-- ask Could you please tell me the result logged for `CCOc1ccc(CNC(=O)c2ccc3nc(CC)c(CC)nc3c2)cc1OC` in this assay?
-- reply F

-- ask I would be grateful if you could indicate the recorded call for `CO[C@H]1O[C@@H]2O[C@@]3(C)CC[C@@H]4[C@@H](C)CC[C@@H]([C@H]1C)[C@@]24OO3` .
-- reply F

-- ask State the result this test recorded for `Cc1cccc(OCCSc2nc3ccccc3n2CC(=O)N2CCCCC2)c1C` .
-- reply F

-- ask Given `CCOc1ccc(CNCc2c(C(=O)O)c(C)n(Cc3cccc(OC)c3)c2C)cc1OC` , state the outcome it received in this test.
-- reply F

-- ask # outcome recorded in this test, key = `COc1ccc(-c2cc(NC(C)=O)c3ncc(-c4cc(OC)c(OC)c(OC)c4)n3c2)cn1`
-- reply T

---

Test: qHTS assay for MDR1-selective chemotherapeutics: Primary screen using the parental adenocarcinoma cell KB-3-1; further: nearly all actives have a fitted effect of over 60% in size
Settings: KB-3-1 viability, CellTiter-Glo ATP luminescence, 72 h; series mostly up to 46.1 µM
Description: A prime difficulty in effectively treating cancer is the development of cellular resistance to multiple structurally unrelated anticancer drugs, a phenomenon known as multidrug resistance (MDR). […] Numerous strategies to overcome P-gp-mediated MDR have been explored, including the design of drugs that evade recognition and efflux, and development of inhibitors to block efflux and restore drug accumulation. […]
About 5,500 (1.4%) of roughly 400,000 compounds were called active. Another 9% or so got no clear call; they are omitted. Calls come from the whole dose curve; as a rule, active = well fitted cell-killing curve with a large enough effect; inconclusive = small, poorly fitted or top-dose-only effect, or effect the other way; inactive = flat fitted curve, though single readings scatter. The sample as a whole holds a higher share of actives than the screen did.
Response enum: active, inactive

-- ask Outcome? `COc1ccccc1CCNS(=O)(=O)c1cn(C)nc1C`
-- reply inactive

-- ask Just curious, what result did `Cc1cccc(CNC(=O)c2cnc3sc(N4CCCCC4)nn3c2=O)c1` get here?
-- reply inactive

-- ask What was the test verdict on `COc1ccc(C)cc1N(CC(=O)N1CCC(C)CC1)S(=O)(=O)c1ccc(C)cc1` ?
-- reply inactive

-- ask Status in this test for CCC1CN(S(=O)(=O)c2cc(-c3cc(C)no3)ccc2C)c2cc(C)ccc2O1 (stereo not drawn) ?
-- reply inactive

-- ask Per the assay record, what outcome was assigned to `COCCn1cnc2c1c(=O)n(Cc1ccc(Br)cc1)c(=O)n2Cc1ccccc1` ?
-- reply inactive

-- ask Given Cc1cc(-c2ccc(C)c(S(=O)(=O)N3c4ccccc4CC3C)c2)on1 (stereo not drawn) , state the outcome it received in this test.
-- reply active

-- ask In this assay, the call recorded for `COc1cccc(OC)c1C(=O)N1CCN(Cc2ccccc2F)CC1` was what?
-- reply inactive

-- ask Hi, sorry to bother you, what did the test record for `CN(C)CCCn1c(N)c(C#N)c2nc(C#N)c(C#N)nc21` ?
-- reply active

-- ask # lookup: test call for `Cc1ccc(-c2cnc(C3CC3)o2)cc1S(=O)(=O)Nc1cccc(C)c1C`
-- reply inactive

-- ask Hi team, can someone confirm the assay call for `COc1cccc(NC(=O)Nc2ccc3c(c2)N(C)C(=O)c2ccccc2S3)c1` ?
-- reply inactive

-- ask Short answer needed: outcome of this test for `COc1ccc(C)cc1Nc1nc2ccccc2c2nnc(C)n12` ?
-- reply inactive

-- ask Which result was noted for this compound in the test: `CCCCc1c(-c2ccc(Br)cc2)ncn1CCc1ccccc1OC`
-- reply active

-- ask Which result was noted for this compound in the test: `Cc1cc(C)n2ncc(C(=O)N3CCCC3)c2n1`
-- reply inactive

-- ask What call does the record list for `CCCCCn1c(=O)[nH]c2cc(C(=O)Nc3ccc(F)cc3)ccc2c1=O` ?
-- reply inactive

-- ask Hi team, can someone confirm the assay call for `COc1ccccc1CN1CCN(Cc2cc(OC)c(OC)cc2OC)CC1` ?
-- reply inactive

-- ask Name the outcome recorded for `C[n+]1ccc(/C=C/c2c[nH]c3ccccc23)cc1` in the assay.
-- reply active

-- ask Entry `COc1ccccc1C1=CC(=O)CCC1` : call = ?
-- reply inactive

-- ask Query: recorded result category for CCOc1ccc(-c2n[nH]c3c2C(c2ccccc2OC)N(c2ccc(Br)cc2)C3=O)cc1 (stereo not drawn) in this test
-- reply inactive

-- ask Test call, this compound: `CC1(C)Cc2ccccc2-c2c[nH]c(=O)n21`
-- reply inactive

-- ask So what was the verdict on `Cc1ccc([N+](=O)[O-])cc1S(=O)(=O)N1CCCN(C)CC1` in this test?
-- reply inactive

-- ask Write down the call the test reported for this compound. Item: `CCCCCc1c(Cc2ccccc2)ncn1CCc1ccccc1OC`
-- reply active

-- ask Please state the recorded outcome for this compound: Cc1ccc2c(c1)C1CN(C)CCC1N2C(=O)c1ccccc1NS(=O)(=O)c1ccc(F)cc1C (stereo not drawn)
-- reply inactive

-- ask What call does the record list for `COc1ccc(O)c(/C=N/N=C/c2cccc([N+](=O)[O-])c2)c1` ?
-- reply inactive

Every entry's value here was drawn from PubChem BioAssay AID1347075.
